Assay: chemical genetic growth profiling, strain panel (AID 1159580);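 also: tested at 20 µM; growth read once vehicle control cultures reached saturation at 30 °C; 1 = growth at the plate median or of vehicle wells; lower values mean less growth of the strain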
Conditions: S. cerevisiae deletion strains, growth OD, locus YPR167C, strain met16, stronger effect = lower value
Out of some 5,500 compounds screened, about 2,000 (36%) were called active. About 18% were inconclusive and are not listed. This is one part of the list.
I'd appreciate it if you could supply normalized growth values for the items below.

Quick one: normalized growth of CC1=CC(=O)C2=C(C)CC(O)C3C(C)C(=O)OC3C12 (stereo not drawn) ?
1.03 (inactive)

Endpoint output: normalized growth of CC(=O)Oc1cccc(C(=O)O)c1OC(C)=O . Value?
1.01 (inactive)

Data request, read-out normalized growth, for CC(=O)OCC(=O)[C@@]1(O)CCC2C3CC[C@@H]4C[C@H](OC(C)=O)CC[C@]4(C)C3C(=O)C[C@@]21C (stereo partly drawn)
1.02 (inactive)

Endpoint output: normalized growth of NC1C[C@H]1c1ccccc1 (stereo partly drawn) . Value?
0.984 (inactive)

Entry CCOc1ccc(C(=O)c2ccc(O)c(O)c2O)cc1 has what normalized growth?
0.897 (active)

What does the data say about its normalized growth? Entry: NCC1OC(OC2C(CO)OC(OC3C(O)C(N)CC(N)C3OC3OC(CO)C(O)CC3N)C2O)C(N)C(O)C1OC1OC(CO)C(O)C(O)C1O (stereo not drawn)
0.981 (inactive)

Which normalized growth value is on record for COc1ccc(C2C(=O)c3ccccc3C2=O)cc1 ?
0.998 (inactive)

Consider the compound shown here: COc1ccc(C(=O)c2ccc(O)cc2)c(O)c1O What is its recorded normalized growth?
0.981 (inactive)

Need normalized growth of CCC1(CC)C(=O)C=CNC1=O , thanks.
1.01 (inactive)

Query: normalized growth; subject: CC(=O)OC1CCC2(C)C3CC(=O)C4(C)C(CC5OC6(CCC(C)CO6)[C@@H](C)C54)C3CC[C@H]2C1 (stereo partly drawn)
0.988 (inactive)

May I ask what normalized growth has been recorded for COc1ccc(C(=O)c2ccccc2)c(O)c1O ?
0.919 (active)

State the recorded normalized growth for this entry: COc1cc(-c2coc3cc(O[C@@H]4O[C@H](CO)[C@@H](O)[C@H](O)[C@H]4O)c(OC)c(O)c3c2=O)cc(O)c1OC
0.993 (inactive)

What normalized growth value was documented for this compound, NC1CC1c1ccccc1 (stereo not drawn) ?
0.985 (inactive)

Please look up its normalized growth: Cc1ccc(N(CC2=NCCN2)c2cccc(O)c2)cc1
1.01 (inactive)

Could you share which normalized growth value was measured for CC1(C)S[C@@H]2[C@H](NC(=O)Cc3ccccc3)C(=O)N2[C@H]1C(=O)O ?
1.02 (inactive)

What does the record list as normalized growth for COC(=O)C[C@H]1C(C)(C)[C@@H](O)[C@@H]2CC3=C4C=C(OC)O[C@@H](c5ccoc5)[C@]4(C)CCC3[C@@]1(C)C2=O (stereo partly drawn) ?
0.983 (inactive)

normalized growth lookup needed for CCCCCCCCCCCCCCCCCCOCC(O)CO (stereo not drawn) , thanks.
1.02 (inactive)

GET /values?readout=normalized growth&item= CN1C(=O)CCS(=O)(=O)C1c1ccc(Cl)cc1 (stereo not drawn)
1.01 (inactive)

May I ask what normalized growth has been recorded for CC1=CC2C(C(C)C)CCC(C)(O)C2CC1 (stereo not drawn) ?
0.987 (inactive)

Recorded normalized growth of O=C1c2ccccc2C(=O)C1c1ccccc1 , please.
1.01 (inactive)

State the recorded normalized growth for this entry: Cc1onc(-c2c(Cl)cccc2Cl)c1C(=O)N[C@@H]1C(=O)N2[C@@H]1SC(C)(C)[C@@H]2C(=O)O
0.985 (inactive)

Could you tell me which normalized growth is on file for CC(=O)Oc1cccc2c1C(=O)c1c(OC(C)=O)cc(C(=O)O)cc1C2=O ?
0.309 (active)

Entry COc1ccc2c(=O)ccoc2c1 has what normalized growth?
1.02 (inactive)
